Test system: PPARg:RXRa 90nM:30nM, anti-RXR (NR concentration 90 nM, RXRa partner concentration 30 nM)
Assay Explanation: PBM binding z-score (relative to random genomic background probes); higher = stronger binding; sequences stand for … in GC…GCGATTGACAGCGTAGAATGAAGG
Reported PBM binding z-score is given for each of the following sequences.

Biosequence	PBM binding z-score
ACTATTAGTTGACTCAGGGCAACCGATACGACGC	0.123
CTACCAAGGTGAACAAGGTCGTTAATTACTATTC	1.15
GCTATTAATTGAAAGGGCAACCGAATGATTCTCG	0.592
GCTGCTAGGTCAAATGATGGTCAGCTAAAGCTCG	2.69
CCTAGCAGGCCAATCTGGGTCCCTCAAGGCTTGA	-0.919
ACTATTAGTTGACTTAGGGCAACAGATACGACGC	0.163
GCTATTAGTTGAAAGGGCAGCCGAATGATTCTCG	3.05
ACTTACGGGTCAACGAGGTTATGGCACGCGTATA	3.95

---

Test system: THRa homodimer (NR concentration 90 nM)
Assay Explanation: PBM binding z-score (relative to random genomic background probes); higher = stronger binding; sequences stand for … in GC…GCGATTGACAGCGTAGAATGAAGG
Property: PBM binding z-score

Biosequence	Val
ATCTCTAGGTAAAGATAGTTCAGTGAATGCAAAT	0.0896
ATCGAAAAGTCGACGAGGTGAGTATACACCGTTT	0.716
CCTACTGGGGCAAAAAGGTCATTGATGCCGATAA	0.176
CAAACTAGGTCAAGCGGTCAAAGTCCGCTTCCCG	0.992
AGTCAAAGTTCGGGACGAGGTAACGTAAAGCACG	1.13

---

Tested on: PXR homodimer (NR concentration 270 nM)
Assay Explanation: PBM binding z-score (relative to random genomic background probes); higher = stronger binding; sequences stand for … in GC…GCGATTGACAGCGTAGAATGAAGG
Property: PBM binding z-score

Biosequence	Val
TCTTGTAGATCGAGCAGGTTAAGAAAGCCTGAGT	-0.0974
GCTGCTAGGTCAACTGATAGTCAGCTAAAGCTCG	-0.294
ACTAGTAGTTGAGACGAGGGCAACCGATAGGTTG	0.115
CCGACTGGTGCAAGGTTACCATAACGCACAGCCA	-0.288
AATACAGGGTCACTCGGCCAGAGTAGGTACGAAT	0.336
TAACCTAGGTCATTCAGGGGCCAGTATAGAAAGC	0.651
TCTTGTAGATCAAGCATGTTAAGAAAGCCTGAGT	0.162
CGAACTAGGTCATCCAGGACAGTGCATACATTGA	1.49
GCTGCTAGCTCAACTGATGGTCAGCTAAAGCTCG	-1.77
GGAACGAGGGCATTCAAGTTGATAGCATGGCGAT	0.722
TAGCCTAGGTCAGATCGGGCCAGTATGCGCTATA	-0.704
TGAATGGGGTTATAAGATCAGGGAACGTTGCAAA	1.48
GTACCGAGGTGAATAGGTCGTTGATGAGTAGGCG	-0.18
GGAACGAGGGCATTCCAGTTGATAGCATGGCGAT	0.706
TCTAGTTGTTCACGGAGGTCACACACGACGGGTA	1.07
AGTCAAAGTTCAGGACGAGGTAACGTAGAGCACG	0.943
CCTTACGGGTCAAGGTTATTGCACGGGTGGTACG	0.512
CGAACTAGGTCAAGGACAGTGATTCTCCGCACGC	-0.0135
TGAATGAGGTTATAGATCAGGGAACGTGGCGTCG	0.211
GGTACAGGGTCAGCTAGAGGCCAGAGTATGGAAA	0.15
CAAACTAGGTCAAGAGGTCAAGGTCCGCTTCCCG	1.72
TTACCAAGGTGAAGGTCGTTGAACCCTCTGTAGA	0.277
TGAACGAGGTTATAAGATCAGGGAACGTTGCAAA	-0.0458
CCTACTGGGCCACAAAGGTCATTGATGCCGATAA	5.11
ACTAGCAGGCCAAGTGTGGGTCACTCAAACAAAG	-0.107
CGACCAAGGTCATAGGAGGTCAGTGAAGACAGAT	4.39
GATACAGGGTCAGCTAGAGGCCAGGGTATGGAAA	0.0758
GCTAGTTGGTCAGTAAAAGGTCATACACCGGTCG	1.09
GCTAGCAGGCCATTTGGGTCAATCAATGACGGGC	0.261
TCTGCTAGGACAACGATGGTCAGCTAATCTGCTA	-1.33
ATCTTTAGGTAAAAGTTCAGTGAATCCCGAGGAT	1.47
CTCGAAAGGTCGTGCTCAGGTGGGTATACCAAAC	0.555
TCTCGGAGGACACGAAAGGTCAGAGCACGACATC	0.7
CGAACTATGTCATTGACAGGACAGTGAATAGTAA	0.452
CGAACTAGGACAAGGACAGTGAATCTCCGCACGC	-0.177
ATCTCTAGGTAAAGATAGTTCAGTGGATGCAAAT	0.373
CCTATTAGTTGACCATAAGGACAACCGAAGCTCG	1.23
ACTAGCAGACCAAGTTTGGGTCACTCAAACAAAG	-0.393
